Ref: the supplement of paper PMC10065799

- TESTED_SYSTEM: Grb2 SH2 (UniProt P62993)
- Sequence (P62993 whole entry, looked up): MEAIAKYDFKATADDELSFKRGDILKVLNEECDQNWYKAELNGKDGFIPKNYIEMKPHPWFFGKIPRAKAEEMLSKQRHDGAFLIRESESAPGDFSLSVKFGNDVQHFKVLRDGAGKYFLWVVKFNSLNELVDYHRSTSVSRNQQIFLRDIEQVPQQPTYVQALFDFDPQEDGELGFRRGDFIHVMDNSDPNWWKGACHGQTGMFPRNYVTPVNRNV
- PROCEDURE_DETAILS: SH2 binding enrichment of the phosphorylated peptide, bacterial display (enrichment ratio); higher = better substrate or ligand; peptides without Tyr show the background
Each record here notes measured SH2 binding enrichment.
Please reply with the value in numeric form only.

Example entries begin here.
LMLVLYGRIFL [HTR1A_Y215_R220L]; 1.16
SVLVPYEPPEV [TP53_Y220_V217L]; 0.892
SFCFRYRCAPR [SUMF1_Y344_A348P_YF]; 0.783
IWDLKYTIENP [SND1_Y178_R174W]; 1.06
NNDLCYWVLEL [IARS1_Y434_P437L]; 0.664
DLTQDYEEWKR [ORC6_Y232]; 0.982
NPQKPYFIRLY [WAS_Y83_S82P]; 0.909
FMCKVYSDPQP [FGFR1_Y280]; 0.733

What value of measured SH2 binding enrichment is listed for KLNNEHLELNY [MME_Y497_Y497H] ?
0.934

Another: EIIPFYGMSSF [FNDC3B_Y175_T179S_YF]
0.652

Another: SLGKGYSDGGC [MC4R_Y35]
0.763

Another: LICRRYLVMQR [IL3RA_Y328_V323L]
0.695

Another: LNERHYGGLTG [PGAM2_Y92]
0.761

Another: SLDLSYFTTSS [EMD_Y181_P183T_YF]
0.803

###

- TESTED_SYSTEM: c-Src SH2
- PROCEDURE_DETAILS: SH2 binding enrichment of the phosphorylated peptide, bacterial display (enrichment ratio); higher = better substrate or ligand; peptides without Tyr show the background
PROPERTY_MEASURED: SH2 binding enrichment

Example entries begin here.
GVIKEYQIRQV [USH2A_Y3623]; 0.501
FHLGKYLQEVL [KLB_Y910_Y906H_YF]; 0.49
RSSKMYPKTRS [LPL_Y329_L330P]; 0.486

From here, focus on the item given below.
What value of measured SH2 binding enrichment is listed for MYQVQYNSSVD [LRFN1_Y458] ?
0.514

###

- TESTED_SYSTEM: EPHB2 (UniProt P29323)
- Sequence (P29323 whole entry, looked up): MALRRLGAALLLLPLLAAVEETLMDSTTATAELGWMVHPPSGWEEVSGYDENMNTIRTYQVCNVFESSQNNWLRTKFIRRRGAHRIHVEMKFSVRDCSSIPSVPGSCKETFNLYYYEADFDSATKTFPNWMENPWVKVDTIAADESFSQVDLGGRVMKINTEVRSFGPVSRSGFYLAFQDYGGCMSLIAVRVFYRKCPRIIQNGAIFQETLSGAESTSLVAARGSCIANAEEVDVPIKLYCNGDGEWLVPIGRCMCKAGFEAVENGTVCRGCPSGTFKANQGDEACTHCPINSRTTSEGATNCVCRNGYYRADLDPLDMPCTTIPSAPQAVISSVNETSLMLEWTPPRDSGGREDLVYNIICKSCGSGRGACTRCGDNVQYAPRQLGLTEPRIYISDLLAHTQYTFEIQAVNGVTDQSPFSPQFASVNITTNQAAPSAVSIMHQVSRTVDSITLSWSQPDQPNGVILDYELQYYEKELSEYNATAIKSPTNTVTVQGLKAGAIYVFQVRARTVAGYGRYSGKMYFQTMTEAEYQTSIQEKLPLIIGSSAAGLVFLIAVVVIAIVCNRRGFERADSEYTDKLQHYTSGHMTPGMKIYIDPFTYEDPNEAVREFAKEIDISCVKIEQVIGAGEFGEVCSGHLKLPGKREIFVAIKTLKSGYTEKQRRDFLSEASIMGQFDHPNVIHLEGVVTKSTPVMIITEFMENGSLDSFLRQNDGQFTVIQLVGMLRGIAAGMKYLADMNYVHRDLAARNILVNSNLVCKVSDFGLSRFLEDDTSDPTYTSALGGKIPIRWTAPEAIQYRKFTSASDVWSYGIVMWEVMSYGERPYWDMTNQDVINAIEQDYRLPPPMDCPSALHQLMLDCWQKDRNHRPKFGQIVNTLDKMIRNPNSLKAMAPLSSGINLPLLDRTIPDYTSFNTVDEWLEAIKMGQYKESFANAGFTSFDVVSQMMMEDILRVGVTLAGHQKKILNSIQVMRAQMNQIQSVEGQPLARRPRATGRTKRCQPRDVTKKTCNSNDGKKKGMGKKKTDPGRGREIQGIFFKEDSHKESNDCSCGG
- PROCEDURE_DETAILS: phosphorylation enrichment, bacterial display (enrichment ratio); higher = better substrate or ligand; peptides without Tyr show the background
PROPERTY_MEASURED: phosphorylation enrichment
Please reply with the value in numeric form only.

What value of measured phosphorylation enrichment is listed for MGSYNYLGFAW [SPTLC2_Y178_R183W] ?
1.88

Another: EYKDAYKFAAD [BRDT_Y335]
0.553

###

Each record here notes measured SH2 binding enrichment.
- TESTED_SYSTEM: c-Src SH2
- PROCEDURE_DETAILS: SH2 binding enrichment of the phosphorylated peptide, bacterial display (enrichment ratio); higher = better substrate or ligand; peptides without Tyr show the background

Example entries begin here.
NNRVFYGNSDR [RS1_Y177]; 0.505
LICRRYLVMQR [IL3RA_Y328_V323L]; 0.414

From here, focus on the item given below.
What value of measured SH2 binding enrichment is listed for EDASEYFENFI [PARP4_Y214_F215Y_YF] ?
0.436

###

- System: AncSZ
- PROCEDURE_DETAILS: phosphorylation enrichment, bacterial display (enrichment ratio); higher = better substrate or ligand; peptides without Tyr show the background
The threshold is inclusive: phosphorylation enrichment of exactly 1 counts as 1.0; values below receive 0.0.

GSERDYTYEEL [EIF2S2_Y174]; 1.0
LAGRFYALKSM [CKB_Y174_YF]; 1.0
AKKKMYSLKTK [AGXT_Y231_R233L]; 0.0
KALSLYTKLMN [STAM_Y371_E366K]; 1.0

Entry CTTILYNFMCN [TP53_Y234_H233L_YF] : is its phosphorylation enrichment no less than 1?
0.0

Another: NVVNEYSSELE [FGB_Y172]
1.0

Another: WIPIQYPIISE [NOG_Y222]
0.0

Another: RIDPDYMGRVR [IGSF9_Y81_V82M]
0.0
